biological target: NHERF4_4, Q86UT5; assay: holdup assay; design: key: below the threshold = too weak to quantify, mostly under pKd 3.1 to 4; conditions: plain residues with an end cap or a label only (N-terminal biotin on a linker: ttds)
Sequence (Q86UT5 464-550): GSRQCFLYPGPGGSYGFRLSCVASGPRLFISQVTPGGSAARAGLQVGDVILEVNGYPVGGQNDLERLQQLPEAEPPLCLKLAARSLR
experimental-readout: pKd

[[record]]
binder = "QRPYRRESEI [KCNJ12, Q14500]"
measurement = "below the threshold"

[[record]]
binder = "PSRDRKETSI [RALBP1, Q15311]"
measurement = "below the threshold"

[[record]]
binder = "DLDEEEDTHL [PODXL, O00592]"
measurement = "below the threshold"


Reference for the values: paper PMC9482650
